Target: T1, LHD101 chainB
T1 construct: also called LHD101B
T1 chain: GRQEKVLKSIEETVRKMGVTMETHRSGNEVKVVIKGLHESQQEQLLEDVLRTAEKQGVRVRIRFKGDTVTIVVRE
Experiment: BLI, global kinetic fit, 1:1 model
Attribute measured: Kd (nM)
The reply should contain only the number, in nM.

-- ask Give the measured Kd of LHD101 chainA (designed binder, also called LHD101A) GRQEKVLKSIEETVRKMGVTMETHRSGNEVKVVIKGLHIKQQRQLYRDVRETSKKQGVETEIEVEGDTVTIVVRE .
-- reply 1.9
